biological target: Beta-2 adrenergic receptor (Homo sapiens, UniProt P07550); experiment: Displacement of radiolabeled iodocyanopindolol from recombinant beta2 adrenoceptor
Sequence (P07550 whole entry): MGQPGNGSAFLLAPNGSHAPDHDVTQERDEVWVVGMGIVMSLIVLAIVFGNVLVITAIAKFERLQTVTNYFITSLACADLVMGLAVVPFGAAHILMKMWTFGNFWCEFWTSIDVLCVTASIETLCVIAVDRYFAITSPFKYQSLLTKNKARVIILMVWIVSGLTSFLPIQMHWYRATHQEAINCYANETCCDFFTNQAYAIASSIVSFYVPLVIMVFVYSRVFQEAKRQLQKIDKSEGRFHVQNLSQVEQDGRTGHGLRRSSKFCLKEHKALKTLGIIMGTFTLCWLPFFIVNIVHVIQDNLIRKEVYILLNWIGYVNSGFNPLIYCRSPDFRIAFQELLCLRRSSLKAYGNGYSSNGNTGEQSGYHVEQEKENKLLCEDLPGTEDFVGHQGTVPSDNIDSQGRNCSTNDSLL
VALUE KIND: pIC50
Remember the convention: pIC50 equals -log10 of concentration in molar.

pIC50 for COc1cccc(CNCc2cccc(CCNC[C@H](O)c3ccc(O)c4[nH]c(=O)sc34)c2)c1 ? 8.20

pIC50 for OCc1cc([C@@H](O)CNCCc2ccc(CNCCc3ccccc3)cc2)ccc1O ? 6.20

pIC50 for O=c1[nH]c2c(O)ccc([C@@H](O)CNCCc3ccc(CNCCc4ccccc4F)cc3)c2s1 ? 8.70

pIC50 for O=c1[nH]c2c(O)ccc(CCNCCc3cccc(CN4CCC(c5ccccc5)CC4)c3)c2s1 ? 7.50

pIC50 for O=c1ccc2c([C@@H](O)CNCCc3cccc(CNCCc4ccccn4)c3)ccc(O)c2[nH]1 ? 7.20

pIC50 for COc1ccccc1CNCc1ccc(CCNC[C@@H](O)c2ccc(O)c3[nH]c(=O)sc23)cc1 ? 6.60

pIC50 for COc1ccccc1CCNCc1ccc(CCNCCc2ccc(O)c3[nH]c(=O)sc23)cc1 ? 6.70
